// provenance: paper PMC10447463

- Tested on: TZM-bl cells
- Format: cell-based
- Condition summary: CellTiter-Glo, peptide 6.5 µM, mean of n = 3 replicates
- Description: The cell viability after addition of peptides to TZM–bl cells was studied via the CellTiter–Glo assay. To this end, 10,000 cells were seeded and on the next day serial diluted peptides were added. […] After 10 min 50 µL was transferred to white microplate and luminescence was recorded by Orion microplate luminometer. […] Figure S 2 Cell Viability normalized to 100% metabolic activity as determined by CellTiterGlo Assay of 57 representatively selected peptides from the library. […]
Property: viability 6.5 µM

> print(dat)
                     substance          property  obs.value
 1           KIKIKIKIWW [TM21]  viability 6.5 µM      80.72
 2      HHHHKIKIKIKIWWWW [TM4]  viability 6.5 µM      68.76
 3            QCKIKIQINM [CK2]  viability 6.5 µM      83.71
 4           CKFKFQFNMWQ [BL2]  viability 6.5 µM      75.41
 5             CKIKQIINM [BL1]  viability 6.5 µM       87.1
 6  RGDSKIKIQIC [TM113 / RC11]  viability 6.5 µM      83.18
 7           RGECKFKFQF [CN16]  viability 6.5 µM      102.8
 8   RGDKIKIQINM [MG8a / CN17]  viability 6.5 µM      86.63
 9            KFKFQFNMWQ [JG4]  viability 6.5 µM      101.1
10         CKIKIQIRGD [psis21]  viability 6.5 µM      97.19
11              RLRLTLC [CN13]  viability 6.5 µM      108.4
12        MKFKFQF [DF5 / CK16]  viability 6.5 µM      99.71
13       RGDKIKIQINMC [psis29]  viability 6.5 µM      82.89
14              KFKFQFW [TM71]  viability 6.5 µM      102.2
15             KIKIQINM [JGB2]  viability 6.5 µM      103.3
16         RGDCKIKIQINM [TM45]  viability 6.5 µM      102.5
17       CKIKIQIII [AR0 / F19]  viability 6.5 µM      87.63

* * *

- Assay method text: Turbidity, derived count rate of scattered light
- Format: physicochemical
- Condition summary: Log10 of derived count rate of scattered light (turbidity)
Recorded measurements of Log10 Count Rate, one per entry
Property: Log10 Count Rate

> print(dat)
           substance  obs.value
 1           CKAKAQA       2.56
 2        KAKAQANMWQ      1.749
 3        KIKIQIMWNQ     3.2757
 4      KIKIKIKIYYYY      3.996
 5        KNERIKNERI      2.508
 6         CKIKIQIII      3.695
 7           KFKFQFW      2.086
 8        NMWQKIKQII      2.992
 9  HHHHKIKIKIKIWWWW      4.376
10  CETMYDKILKNLSRSR      3.041
